Target: KRAS G12C (Homo sapiens (Human), UniProt P01116+P62937, G12C)
Sequence (P01116-2 other isoform, or with tags, fused parts or gaps G12C): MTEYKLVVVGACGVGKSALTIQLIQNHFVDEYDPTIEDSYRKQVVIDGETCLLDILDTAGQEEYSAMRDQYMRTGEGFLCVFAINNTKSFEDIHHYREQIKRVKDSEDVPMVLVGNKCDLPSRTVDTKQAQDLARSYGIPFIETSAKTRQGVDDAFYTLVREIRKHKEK
Sequence (P62937 whole entry): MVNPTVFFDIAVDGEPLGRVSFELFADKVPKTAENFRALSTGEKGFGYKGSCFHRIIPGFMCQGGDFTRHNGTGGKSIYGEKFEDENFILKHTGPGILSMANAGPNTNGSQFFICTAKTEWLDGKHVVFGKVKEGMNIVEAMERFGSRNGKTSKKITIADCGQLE
Assay: Ras-Raf disruption/FRET/MOA assay (BRAF RBD, Cyclophilin A)
Format: biochemical
Settings: read-out: KRAS G12C FRET IC50
So I've got a bunch of compounds here, and I need their IC50 values.

Known results for compounds:
CCn1c(-c2cccnc2[C@H](C)OC)c2c3cc(ccc31)-c1csc(n1)C[C@H](NC(=O)[C@H](C(C)C)N(C)C(=O)N(C)[C@H]1CCCN(C)C1)C(=O)N1CCC[C@H](N1)C(=O)OCC(C)(C)C2 = 100 to 1000 nM
CCn1c(-c2cccnc2[C@H](C)OC)c2c3cc(ccc31)-c1cc(O)cc(c1)C[C@H](NC(=O)[C@H](C(C)C)N(C)C(=O)[C@H]1CCN(C(=O)[C@]3(C)CCCN3)C1)C(=O)N1CCC[C@H](N1)C(=O)OCC(C)(C)C2 = 10 to 100 nM

Can you look up the measured IC50 of CCn1c(-c2cccnc2[C@H](C)OC)c2c3cc(ccc31)-c1csc(n1)C[C@H](NC(=O)[C@H](C(C)C)N(C)C(=O)N1CC(OC)C1)C(=O)N1CCC[C@H](N1)C(=O)OCC(C)(C)C2 [Compound A354] for me? 100 to 1000 nM

###

Biological target: KRAS G12D (Homo sapiens (Human), UniProt P01116+P62937, G12D)
Sequence (P01116 other isoform, or with tags, fused parts or gaps G12D): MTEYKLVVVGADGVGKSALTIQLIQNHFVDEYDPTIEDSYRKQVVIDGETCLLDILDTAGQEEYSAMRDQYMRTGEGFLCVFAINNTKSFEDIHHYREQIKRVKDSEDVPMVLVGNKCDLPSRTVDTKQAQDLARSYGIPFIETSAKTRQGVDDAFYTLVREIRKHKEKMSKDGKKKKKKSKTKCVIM
Sequence (P62937 whole entry): as the sequence (P62937 whole entry) above
Experiment: Ras-Raf disruption/FRET/MOA assay (BRAF RBD, Cyclophilin A)
Format: biochemical
Settings: read-out: KRAS G12D FRET IC50
observable: IC50

Batch lookup, IC50 per entry.
1. CCn1c(-c2cccnc2[C@H](C)OC)c2c3cc(ccc31)-c1cc(O)cc(c1)C[C@H](NC(=O)[C@H](C(C)C)N(C)C(=O)[C@@H]1C[C@@H]1F)C(=O)N1CCC[C@H](N1)C(=O)OCC(C)(C)C2 [Compound A160]
2. CCn1c(-c2cccnc2[C@H](C)OC)c2c3cc(ccc31)-c1cc(O)cc(c1)C[C@H](NC(=O)[C@H](C(C)C)N(C)C(=O)[C@H]1CCN(C(=O)OC3CN(C)C3)C1)C(=O)N1CCC[C@H](N1)C(=O)OCC(C)(C)C2 [Compound A348]

1: 100 to 1000 nM; 2: 10 to 100 nM

###

Target: KRAS G12C (Homo sapiens (Human), UniProt P01116+P62937, G12C)
Assay: Ras-Raf disruption/FRET/MOA assay (BRAF RBD, Cyclophilin A)
Type: biochemical
Details: read-out: KRAS G12C FRET IC50
observable: IC50

Examples with their reported IC50 follow.
CCn1c(-c2cccnc2[C@H](C)OC)c2c3cc(ccc31)-c1csc(n1)C[C@H](NC(=O)[C@H](C(C)C)N(C)C(=O)N1CCCC13CN(C)C3)C(=O)N1CCC[C@H](N1)C(=O)OCC(C)(C)C2 = 100 to 1000 nM
CCn1c(-c2cccnc2[C@H](C)OC)c2c3cc(ccc31)-c1csc(n1)C[C@H](NC(=O)[C@H](C(C)C)N(C)C(=O)N1CCOC3(COC3)C1)C(=O)N1CCC[C@H](N1)C(=O)OCC(C)(C)C2 = 10 to 100 nM
CCn1c(-c2cccnc2[C@H](C)OC)c2c3cc(ccc31)-c1cc(O)cc(c1)C[C@H](NC(=O)[C@H](C(C)C)N(C)C(=O)[C@@H]1C[C@@H]1F)C(=O)N1CCC[C@H](N1)C(=O)OCC(C)(C)C2 = 10 to 100 nM

Next molecule, IC50 to be filled in.
# query: IC50 | item CCn1c(-c2cccnc2[C@H](C)OC)c2c3cc(ccc31)-c1cc(O)cc(c1)C[C@H](NC(=O)[C@@H]1[C@H]3C[C@H]3CN1C(C)=O)C(=O)N1CCC[C@H](N1)C(=O)OCC(C)(C)C2 | system: KRAS G12C (Homo sapiens (Human), UniProt P01116+P62937, G12C) 100 to 1000 nM

From: patent US20250195521A1
